TEST_METHOD_NOTES: Brain distribution of Compound A in mice with mammary C/16 adenocarcinomas (second method, brain tissue)
Type: in vivo, C3H/HeN female mice
TEST_SETTINGS: mouse, brain, iv, 40 mg/kg, 40 mg/kg i.v.; read-out: half-life of the distribution phase, brain (converted)
MEASUREMENT_KIND: half-life (min)
One number for each entry, in min.

For record CC(=O)O[C@H]1C(=O)[C@]23C[C@H]2C[C@H]2OC[C@@]2(OC(C)=O)[C@H]3[C@H](OC(=O)c2ccccc2)[C@]2(O)C[C@H](OC(=O)[C@H](O)[C@@H](NC(=O)OC(C)(C)C)c3ccccc3)C(C)=C1C2(C)C [Compound A] the listed half-life is 4.2

====

TEST_METHOD_NOTES: Tissue distribution of Compound A in mice with mammary C/16 adenocarcinomas (first method: liver, heart, kidney, lung, spleen, tumor)
Assay type: in vivo, C3H/HeN female mice
TEST_SETTINGS: mouse, spleen/plasma, iv, 40 mg/kg, 0.25 h; mice with tumors; single mice; read-out: Tissue/Plasma Ratio, SPLEEN
MEASUREMENT_KIND: Kp at 0.25 h

For CC(=O)O[C@H]1C(=O)[C@]23C[C@H]2C[C@H]2OC[C@@]2(OC(C)=O)[C@H]3[C@H](OC(=O)c2ccccc2)[C@]2(O)C[C@H](OC(=O)[C@H](O)[C@@H](NC(=O)OC(C)(C)C)c3ccccc3)C(C)=C1C2(C)C [Compound A] the molecule record lists Kp at 0.25 h as 0.85

====

TEST_METHOD_NOTES: Tissue distribution of Compound A in mice with mammary C/16 adenocarcinomas (first method: liver, heart, kidney, lung, spleen, tumor)
Type: in vivo, C3H/HeN female mice
TEST_SETTINGS: mouse, lung/plasma, iv, 40 mg/kg, 4 h; 40 μg/kg [sic]; mice with tumors; single mice; read-out: Tissue/Plasma Ratio, LUNG
MEASUREMENT_KIND: Kp at 4 h

So for CC(=O)O[C@H]1C(=O)[C@]23C[C@H]2C[C@H]2OC[C@@]2(OC(C)=O)[C@H]3[C@H](OC(=O)c2ccccc2)[C@]2(O)C[C@H](OC(=O)[C@H](O)[C@@H](NC(=O)OC(C)(C)C)c3ccccc3)C(C)=C1C2(C)C , the logged Kp at 4 h turned out to be 1.43

====

TEST_METHOD_NOTES: Tissue distribution of Compound A in mice with mammary C/16 adenocarcinomas (first method: liver, heart, kidney, lung, spleen, tumor)
Format: in vivo, C3H/HeN female mice
TEST_SETTINGS: mouse, tumor/plasma, iv, dose 60.5; 0.50 h; single mice; read-out: Tumor/Plasma Ratio
Procedure: Mammary C/16 adenocarcinomas were implanted in C3H/HeN female mice. […] The body weight and date of implantation were recorded for each mouse. […] The plasma and tissue samples were then analyzed for the concentration of Compound A. The plasma was assayed by high pressure liquid chromatography with spectrophotometric detection. For the tissue, liver, heart, kidney, lung, spleen and tumor tissue, samples were assayed by a first method, while a second method was used for the brain tissue analyzed. […]
MEASUREMENT_KIND: Kp at 0.5 h
Answers are plain numbers.

Sure, the documented Kp at 0.5 h for CC(=O)O[C@H]1C(=O)[C@]23C[C@H]2C[C@H]2OC[C@@]2(OC(C)=O)[C@H]3[C@H](OC(=O)c2ccccc2)[C@]2(O)C[C@H](OC(=O)[C@H](O)[C@@H](NC(=O)OC(C)(C)C)c3ccccc3)C(C)=C1C2(C)C is 0.62

The measured values listed here are drawn from patent US6156789A.
